# Test Target: Egalitarian (Egl);Bicaudal D (BicD) (Drosophila melanogaster;Drosophila …, UniProt Q9W1K4;P16568 1-1004;1-782, |)
# Sequence (chain, as listed by the source |, chain 1 of 2): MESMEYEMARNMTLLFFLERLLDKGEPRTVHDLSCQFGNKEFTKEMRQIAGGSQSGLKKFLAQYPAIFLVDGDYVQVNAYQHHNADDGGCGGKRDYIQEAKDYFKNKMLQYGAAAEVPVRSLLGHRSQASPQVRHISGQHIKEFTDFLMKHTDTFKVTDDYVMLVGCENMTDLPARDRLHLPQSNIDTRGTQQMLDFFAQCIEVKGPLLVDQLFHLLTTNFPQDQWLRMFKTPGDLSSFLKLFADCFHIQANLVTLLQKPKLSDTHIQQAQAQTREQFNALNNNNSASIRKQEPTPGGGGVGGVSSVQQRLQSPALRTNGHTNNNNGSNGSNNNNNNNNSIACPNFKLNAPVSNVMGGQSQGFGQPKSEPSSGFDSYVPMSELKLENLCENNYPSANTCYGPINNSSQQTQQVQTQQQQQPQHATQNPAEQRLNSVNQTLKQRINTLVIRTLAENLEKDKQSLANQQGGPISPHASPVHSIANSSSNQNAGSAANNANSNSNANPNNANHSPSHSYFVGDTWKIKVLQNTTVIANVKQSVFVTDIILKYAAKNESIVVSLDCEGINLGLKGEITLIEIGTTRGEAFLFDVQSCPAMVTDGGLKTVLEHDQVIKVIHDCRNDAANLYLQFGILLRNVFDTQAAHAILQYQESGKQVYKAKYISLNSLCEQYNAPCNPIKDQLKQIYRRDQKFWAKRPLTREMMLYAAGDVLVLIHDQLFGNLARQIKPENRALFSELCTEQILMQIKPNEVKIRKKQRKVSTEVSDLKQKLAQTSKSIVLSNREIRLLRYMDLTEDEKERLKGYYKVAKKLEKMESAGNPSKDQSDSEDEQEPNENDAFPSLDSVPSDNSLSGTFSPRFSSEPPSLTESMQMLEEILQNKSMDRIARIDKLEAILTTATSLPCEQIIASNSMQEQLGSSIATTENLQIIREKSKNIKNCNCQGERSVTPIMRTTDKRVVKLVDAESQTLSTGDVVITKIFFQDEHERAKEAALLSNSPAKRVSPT
# Sequence (P16568 whole entry, chain 2 of 2): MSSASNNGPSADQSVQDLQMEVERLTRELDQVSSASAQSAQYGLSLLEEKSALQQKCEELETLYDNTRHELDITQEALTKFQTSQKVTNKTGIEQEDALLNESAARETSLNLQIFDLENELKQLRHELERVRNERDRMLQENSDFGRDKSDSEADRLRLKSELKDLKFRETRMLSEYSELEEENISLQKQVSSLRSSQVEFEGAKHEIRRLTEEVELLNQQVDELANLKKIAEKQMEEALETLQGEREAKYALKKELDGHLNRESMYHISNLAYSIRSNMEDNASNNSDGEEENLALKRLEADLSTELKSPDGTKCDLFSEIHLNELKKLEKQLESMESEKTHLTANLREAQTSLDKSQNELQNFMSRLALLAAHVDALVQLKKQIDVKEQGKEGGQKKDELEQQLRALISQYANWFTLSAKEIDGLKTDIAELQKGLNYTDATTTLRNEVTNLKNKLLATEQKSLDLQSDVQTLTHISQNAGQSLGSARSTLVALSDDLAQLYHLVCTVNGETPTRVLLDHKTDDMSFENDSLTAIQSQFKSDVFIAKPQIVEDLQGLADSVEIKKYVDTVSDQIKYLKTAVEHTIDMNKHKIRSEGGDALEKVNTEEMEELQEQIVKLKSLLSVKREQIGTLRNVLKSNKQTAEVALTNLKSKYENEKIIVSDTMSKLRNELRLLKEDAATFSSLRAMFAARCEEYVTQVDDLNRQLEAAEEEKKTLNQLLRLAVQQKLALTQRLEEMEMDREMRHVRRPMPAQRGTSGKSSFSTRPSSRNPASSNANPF
# Experiment Notes: MST; prep 4; MST: 1 nM Cy5-RNA in GF150 (25 mM HEPES pH 7.3, 150 mM KCl, 1 mM MgCl2, 0.1 mM Mg-ATP, 5 mM DTT, 10% glycerol) + 0.05% Tween-20, 15 min, room temperature; Egl-BicD conc. as 2:2 complex
# Assay Conditions: protein: recombinant;recombinant; tags: C-terminal TEV-ZZ (cleaved);; chain copies: 2;2; label: 5'-Cy5; hairpin
Property Name: pKd
Answer as the number alone; pKd is minus log10 of concentration in mol/L.

*Q* # query: pKd of entry TLS∆b (structured_RNA) RNA: UUACACCACUUGAUUGUAUUUUUAAAUUAAUUCUUAAAAAUACAAUUAAGAUCACUCU
*A* 5.55
